Biological target: ACKR3 (Homo sapiens)
Sequence (P25106 whole entry): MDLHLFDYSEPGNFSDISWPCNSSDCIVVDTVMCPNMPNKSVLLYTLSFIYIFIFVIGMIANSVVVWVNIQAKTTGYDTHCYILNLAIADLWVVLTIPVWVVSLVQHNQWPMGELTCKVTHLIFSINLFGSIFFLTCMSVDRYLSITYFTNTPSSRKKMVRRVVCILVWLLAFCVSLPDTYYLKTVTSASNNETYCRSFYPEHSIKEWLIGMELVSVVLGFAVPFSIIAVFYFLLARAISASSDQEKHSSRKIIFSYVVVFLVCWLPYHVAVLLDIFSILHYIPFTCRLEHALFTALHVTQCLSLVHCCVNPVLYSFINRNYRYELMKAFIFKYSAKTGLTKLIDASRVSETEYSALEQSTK
Experiment: ACKR3 β-arrestin recruitment assay (PathHunter, β-galactosidase complementation)
Format: cell-based
Conditions: stable human ACKR3-β-arrestin-2-CHO cells; mean ± SEM, at least two independent experiments in duplicate
test.readout: EC50 (µM)

# compound, value.unit, EC50
data = [
    ("C/C=C1/CN(CC2CCCCC2)CC[C@H]1C(=O)c1cc2ccccc2[nH]1 [WW-68]", "µM", 3.61),
]

A = CCCCCN1CC[C@H](NC(=O)c2cc3ccc(-c4ccc(F)cc4)cc3[nH]2)C1 [WW-44]
B = CCCCCN1CC[C@H](NC(=O)c2cc3cccc(-c4ccc(F)cc4)c3[nH]2)C1 [WW-46]
Input line: Sort A and B by EC50 descending and give the first. I would appreciate it if you answered with the label of your choice.
Output line: A
(A: 4.14 µM, B: 0.504 µM)

----------
Molecular target: UniProtKB P41143
Sequence (P41143 whole entry): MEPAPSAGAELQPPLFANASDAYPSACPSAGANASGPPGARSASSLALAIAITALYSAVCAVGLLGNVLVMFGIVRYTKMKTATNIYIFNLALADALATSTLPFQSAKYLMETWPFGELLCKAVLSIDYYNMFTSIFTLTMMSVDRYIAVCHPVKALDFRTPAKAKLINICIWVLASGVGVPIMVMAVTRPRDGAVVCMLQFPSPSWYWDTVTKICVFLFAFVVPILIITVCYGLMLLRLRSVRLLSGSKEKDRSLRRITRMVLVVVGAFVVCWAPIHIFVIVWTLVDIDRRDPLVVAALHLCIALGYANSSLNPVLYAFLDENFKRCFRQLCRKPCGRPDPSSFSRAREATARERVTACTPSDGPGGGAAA
Experiment: DOR calcium mobilization agonist/antagonist screen (CHO-RD-HGA16 cells)
Type: cell-based
Set-up: host or cells: CHO-RD-HGA16
Conditions: antagonist screen, single concentration; vs EC60 of DPDPE
test.readout: DOR Calcium % DPDPE Inhibition (%)

Worked cases, answers included:
# molecule, test.readout, value.unit, test.result
data = [
    ("C/C=C1/CN(CC(C)C)CC[C@H]1C(=O)c1cc2ccccc2[nH]1", "DOR Calcium % DPDPE Inhibition", "%", 5),
    ("CCC1CN2CC[C@H]1C(=O)c1[nH]c3ccccc3c1C2 (stereo partly drawn)", "DOR Calcium % DPDPE Inhibition", "%", 3),
    ("C/C=C1/CN2CC[C@H]1C(=O)c1[nH]c3cc(F)ccc3c1C2", "DOR Calcium % DPDPE Inhibition", "%", 9),
]

1 = C/C=C1/CN2CC[C@H]1C(=O)c1[nH]c3ccc(Cl)cc3c1C2
2 = C/C=C1/CN2CC[C@H]1C(=O)c1[nH]c3ccc(F)cc3c1C2
Input line: Sort 1 and 2 by DOR Calcium % DPDPE Inhibition descending and give the first. I would appreciate it if you answered with the label of your choice.
Output line: 1

P = C/C=C1/CN2CC[C@H]1C(=O)c1[nH]c3ccc(OC)cc3c1C2
Q = O=C(c1cc2ccccc2[nH]1)C1CCN(Cc2ccccc2)CC1
Input line: Sort P and Q by DOR Calcium % DPDPE Inhibition descending and give the first. I would appreciate it if you answered with the label of your choice.
Output line: P
(P: 22%, Q: 6%)

1 = CCOC(=O)C1CCN(Cc2c[nH]c3ccccc23)CC1
2 = C=C1c2[nH]c3ccccc3c2CN2CC[C@@H]1/C(=C\C)C2
Input line: Sort 1 and 2 by DOR Calcium % DPDPE Inhibition descending and give the first. I would appreciate it if you answered with the label of your choice.
Output line: 2
(2: 18%, 1: 11%)

----------
Target: ACKR3 (Homo sapiens)
Assay: ACKR3 β-arrestin recruitment assay (PathHunter, β-galactosidase complementation)
Type: cell-based
Conditions: read-out: ACKR3 β-arrestin % CXCL12 Emax ± SEM
test.readout: Emax (%)

# molecule, Emax / %
records = [
    ("CCCCCN1CC[C@H](NC(=O)c2cc3ccc(-c4ccc(F)cc4)cc3[nH]2)C1 [WW-44]", 110),
    ("C/C=C1/CN(CCCCC)CC[C@H]1C(=O)c1cc2ccccc2[nH]1 [WW-12]", 140),
    ("C/C=C1/CN(CCCCC)CC[C@H]1C(O)c1cc2ccccc2n1S(=O)(=O)c1ccccc1 (some centres unmarked) [WW-74]", 172),
    ("C/C=C1/CN2CC[C@H]1C(=O)c1[nH]c3ccccc3c1C2 [WW-1]", 181),
    ("CCCCCN1CCC(C(=O)c2cc3ccccc3n2CCCCC)CC1 [WW-20]", 154),
    ("C/C=C1/CN(CCCCCC)CC[C@H]1C(=O)c1cc2ccccc2[nH]1 [WW-62]", 137),
    ("C/C=C1/CN2CC[C@H]1C(=O)c1[nH]c3ccc(OC)cc3c1C2 [WW-5]", 171),
    ("C/C=C1/CN(Cc2ccc(OC)cc2)CC[C@H]1C(O)c1cc2cc(-c3ccc(F)cc3)ccc2n1S(=O)(=O)c1ccccc1 (some centres unmarked) [WW-69]", 79),
    ("C/C=C1/CN(Cc2ccc(OC)cc2)CC[C@H]1C(O)c1cc2ccccc2n1S(=O)(=O)c1ccccc1 (some centres unmarked) [WW-61]", 156),
    ("CCCCCN1CC[C@H](NC(=O)c2cc3cccc(-c4ccc(F)cc4)c3[nH]2)C1 [WW-46]", 119),
]

P = C/C=C1/CN(CCc2ccc(F)cc2)CC[C@H]1C(=O)c1cc2ccccc2[nH]1 [WW-9]
Q = C/C=C1/CN(CCC)CC[C@H]1C(=O)c1cc2ccccc2[nH]1 [WW-14]
Input line: For the pair P and Q , which entry has the numerically smaller recorded Emax? I would appreciate it if you answered with the label of your choice.
Output line: Q
(Q: 84%, P: 132%)

P = C/C=C1/CN(CCCCOc2ccccc2)CC[C@H]1C(=O)c1cc2ccccc2[nH]1 [WW-72]
Q = CCCCCN1CCC(C)(C(=O)c2cc3ccccc3[nH]2)CC1 [WW-57]
Input line: For the pair P and Q , which entry has the numerically smaller recorded Emax? I would appreciate it if you answered with the label of your choice.
Output line: Q

----------
Target: MOR (Homo sapiens, UniProt P35372)
Sequence (P35372 whole entry): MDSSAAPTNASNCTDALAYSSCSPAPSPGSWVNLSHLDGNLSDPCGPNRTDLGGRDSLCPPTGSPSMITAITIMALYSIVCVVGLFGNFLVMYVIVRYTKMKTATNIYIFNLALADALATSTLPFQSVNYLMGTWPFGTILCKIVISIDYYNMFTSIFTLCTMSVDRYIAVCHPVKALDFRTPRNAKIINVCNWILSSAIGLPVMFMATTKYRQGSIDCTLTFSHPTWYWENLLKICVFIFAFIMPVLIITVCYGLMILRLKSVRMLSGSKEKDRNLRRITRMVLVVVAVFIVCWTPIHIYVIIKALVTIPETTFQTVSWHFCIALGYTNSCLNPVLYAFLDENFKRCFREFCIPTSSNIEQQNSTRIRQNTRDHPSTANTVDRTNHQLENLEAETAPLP
Assay: MOR calcium mobilization agonist/antagonist screen (CHO-RD-HGA16 cells)
Type: cell-based
Set-up: host or cells: CHO-RD-HGA16
Conditions: antagonist screen, single concentration; vs EC60 of DAMGO
test.readout: MOR Calcium % DAMGO Inhibition (%)

# smiles.notation, MOR Calcium % DAMGO Inhibition (%)
records = [
    ("C/C=C1/CN2CC[C@H]1C(=O)c1[nH]c3ccc(OC)cc3c1C2", 13),
]

I = C/C=C1/CN2CC[C@H]1C(=O)c1[nH]c3cc(F)ccc3c1C2
II = O=C(c1cc2ccccc2[nH]1)C1CCN(Cc2ccccc2)CC1
III = C/C=C1/CNCC[C@H]1C(=O)c1cc2ccccc2[nH]1
Input line: Order the 3 compounds from highest to lowest MOR Calcium % DAMGO Inhibition. Quick reminder: the answer is the labels in the order asked.
Output line: III, II, I
(III: 3%, II: 2%, I: 1%)

----------
Target: MOR (Homo sapiens, UniProt P35372)
Test: MOR calcium mobilization agonist/antagonist screen (CHO-RD-HGA16 cells)
Type: cell-based
Set-up: host or cells: CHO-RD-HGA16
Details: CHO-RD-HGA16; agonist screen, single concentration; control agonist DAMGO
Description: Compounds were evaluated for kappa (KOR), mu (MOR), and delta (DOR) opioid receptor agonist and antagonist activity in three individual cell lines overexpressing Gαq16 (CHO-RD-HGA16, Molecular Devices) and the human kappa, mu, and delta opioid receptors, respectively. […] After the dye-loading incubation period, pretreatment solution was added to each well (25 μL of 9% DMSO/assay buffer) and, after 15 min, the plate was read with a FlexStation II (Molecular Devices). […]
test.readout: Emax (%)

Worked cases, answers included:
# compound, target.desc, Emax / %
data = [
    ("C/C=C1/CN(CC(C)C)CC[C@H]1C(=O)c1cc2ccccc2[nH]1 [WW-10]", "MOR (Homo sapiens, UniProt P35372)", 1),
    ("C/C=C1/CNCC[C@H]1C(=O)c1cc2ccccc2[nH]1 [WW-8]", "MOR (Homo sapiens, UniProt P35372)", 1),
    ("C=C1c2[nH]c3ccccc3c2CN2CC[C@@H]1/C(=C\\C)C2 [WW-16]", "MOR (Homo sapiens, UniProt P35372)", 0),
]

a = C/C=C1/CN(CCc2ccc(F)cc2)CC[C@H]1C(=O)c1cc2ccccc2[nH]1 [WW-9]
b = C/C=C1/CN2CC[C@H]1C(=O)c1[nH]c3ccc(OC)cc3c1C2 [WW-5]
c = C/C=C1/CN(Cc2ccc(OC)cc2)CC[C@H]1C(=O)c1cc2ccccc2[nH]1 [WW-7]
Input line: Order the 3 compounds from highest to lowest Emax. Quick reminder: the answer is the labels in the order asked.
Output line: c, b, a
(c: 2%, b: 1%, a: 0%)

----------
Target: UniProt P41145
Sequence (P41145 whole entry): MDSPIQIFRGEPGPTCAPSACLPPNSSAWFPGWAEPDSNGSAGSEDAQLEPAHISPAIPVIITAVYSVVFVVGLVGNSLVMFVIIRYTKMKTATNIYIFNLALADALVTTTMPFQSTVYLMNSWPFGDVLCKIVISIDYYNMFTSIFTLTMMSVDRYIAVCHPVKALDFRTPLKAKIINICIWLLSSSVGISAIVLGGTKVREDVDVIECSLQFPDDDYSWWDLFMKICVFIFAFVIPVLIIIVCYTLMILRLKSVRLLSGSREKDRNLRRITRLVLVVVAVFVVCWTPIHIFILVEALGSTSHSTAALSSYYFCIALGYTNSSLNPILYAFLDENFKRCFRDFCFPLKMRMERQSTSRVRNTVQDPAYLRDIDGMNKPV
Experiment: KOR calcium mobilization agonist/antagonist screen (CHO-RD-HGA16 cells)
Assay type: cell-based
Parameters: host or cells: CHO-RD-HGA16
Conditions: CHO-RD-HGA16; agonist screen, single concentration; control agonist U69,593
test.readout: Emax (%)

# compound, Emax, %
records = [
    ("C/C=C1/CN2CC[C@H]1C(=O)c1[nH]c3ccccc3c1C2", 9),
    ("C/C=C1/CN(Cc2ccc(OC)cc2)CC[C@H]1C(=O)c1cc2ccccc2[nH]1", 14),
]

A = CCC1CN2CC[C@H]1C(=O)c1[nH]c3ccccc3c1C2 (some centres unmarked)
B = C/C=C1/CN2CC[C@H]1C(=O)c1[nH]c3cc(F)ccc3c1C2
C = C/C=C1/CN(CCCCC)CC[C@H]1C(=O)c1cc2ccccc2[nH]1
D = O=C(c1cc2ccccc2[nH]1)C1CCN(Cc2ccccc2)CC1
E = C=C1c2[nH]c3ccccc3c2CN2CC[C@@H]1/C(=C\C)C2
Input line: Order the 5 compounds from highest to lowest Emax. Quick reminder: the answer is the labels in the order asked.
Output line: A, C, E, B, D
